# Test system: NCI-H23 lung
# Protocol notes: NCI tumour cell line growth inhibition, 48 h; in the data active = GI50 below about 0.43 µM; inactive = the rest
Result category, one only: active, inactive

Known results for compounds:
CCC(c1ccc(OC)cc1)C(CC)c1ccc(O)c(CN2CCCC2)c1 (stereo not drawn): inactive
O=C(NC1CCN(Cc2ccccc2)CC1)c1cc(C(=O)NC2CCN(Cc3ccccc3)CC2)cc(C(=O)NC2CCN(Cc3ccccc3)CC2)c1: inactive
O=C1/C(=C/c2ccccc2)CN(CCC(=O)N2C/C(=C\c3ccccc3)C(=O)/C(=C/c3ccccc3)C2)C/C1=C\c1ccccc1: inactive
COC(=O)c1cc2c3c(cc(O)c2[nH]1)N(C(=O)C1Cc2cc(OC)c(OC)c(OC)c2N1)CC3CCl (stereo not drawn): active
CCC1CCCCN1C(=S)N/N=C(\C)c1ccccn1 (stereo not drawn): active

I would be grateful if you could indicate the recorded call for COc1ccccc1N1CCN(C(=O)c2ccc(NS(=O)(=O)c3cccc4cccnc34)cc2)CC1 .
inactive

Give the logged outcome of this assay for the following compound: COc1cc([C@@H]2c3cc4c(cc3[C@H](OC(C)=O)[C@H]3COC(=O)[C@H]23)OCO4)cc(OC)c1OC
active

Outcome logged for CCCCNC(=O)Oc1ccc2c(=O)c3sc4c(=O)c5ccccc5c(=O)c4c3c(=O)c2c1 in this assay:
active

* * *

# Test system: LOX IMVI melanoma
# Protocol notes: NCI tumour cell line growth inhibition, 48 h
Each entry below lists one item and its recorded TGI value.

Solved entries:
CC1OC(O[C@H]2/C=C/C=C/C=C/C=C/C=C/C=C/C=C/[C@H](C)[C@@H](O)[C@@H](C)[C@H](C)OC(=O)C[C@H](O)C[C@H](O)CC[C@@H](O)[C@H](O)C[C@H](O)C[C@]3(O)C[C@H](O)[C@@H](C(=O)O)[C@H](C2)O3)C(O)C(N)C1O (some centres undefined): > 50.7 µM
CCOC(=O)/C(C#N)=C\C=C1/C=CNC2=NCCN21: > 100 µM
COc1cc2c3c(n(Cc4ccccc4)c(=O)c2cc1OC)-c1ccccc1C3=O: > 100 µM
CCOP(=O)(OCC)/C(C#N)=C/c1cccn1N(C)C: > 100 µM
CN(C)Cc1cccc(CN(C)C)[c]1[Sn]([Br])([c]1ccccc1)[c]1ccccc1: 20.3 µM

Any idea what TGI was measured for O=C(/C=C\Nc1ccccc1O)C(Cl)(Cl)Cl ?
> 100 µM

Can you look up the measured TGI of CC(NC(=O)C(N)CC(=O)O)NC(=O)N1CCOCC1 (centres undefined) for me?
> 100 µM

Look up TGI for this compound: CCOC(=O)C#Cc1ccc([N+](=O)[O-])cc1
2.77 µM

What value of measured TGI is listed for Cc1ccc(/C=N/Nc2nncc3ccccc23)s1 ?
> 100 µM

Entry under review: CCc1n[nH]c(=O)n1NC(=O)c1ccccc1C(=O)O . Reported TGI?
> 100 µM

Entry NC(=O)c1cc(Cl)ccc1NC(=O)c1ccccc1-c1ccccc1 has what TGI?
43 µM

Reported TGI for O=C(O)CCSC(=O)Nc1cccc([N+](=O)[O-])c1 : what is it?
> 100 µM

Recorded TGI for C[Si](C)(C)/C=C\CCCN1C(=O)CCC1=O , please?
> 100 µM

* * *

# System: NCI-H226 lung
# Protocol notes: NCI tumour cell line growth inhibition, 48 h
# TGI per record follows

Study these solved cases before continuing.
CSc1nc(O)c(/C=C2\C=Nc3ccccc32)[nH]1: > 100 µM
c1ccc(/N=C2\c3ccccc3CN2c2ccccn2)nc1: > 100 µM
COc1ccc(Cl)cc1NC(=O)c1c(NC(=O)C(F)(F)C(F)(F)F)sc2c1CCCCC2: 6.05 µM

// below: TGI requested for another compound
What value of TGI has been reported for the following compound? c1ccc2c(c1)nnn2CNc1ccc(N2CCOCC2)cc1
> 100 µM

* * *

# Tested on: SK-MEL-5 melanoma
# Protocol notes: NCI tumour cell line growth inhibition, 48 h; in the data active means GI50 below about 0.43 µM; inactive means the rest
Hi there, use one of these labels in your reply, thanks! YES = active, NO = inactive

The examples below pair each entry with its known result.
NCCCn1c2c(c3cc4c(cc3c1=O)OCO4)C(=O)c1ccccc1-2: YES
Oc1cccc(Cn2c(-c3cccc(O)c3O)nc3ccccc32)c1O: NO
COc1ccccc1N1CCN(C(=O)c2ccc(NS(=O)(=O)c3cccc4cccnc34)cc2)CC1: NO
CCC1CCCCN1C(=S)N/N=C(\C)c1ccccn1 (stereo not given): YES

Recorded test outcome, item CNC(=O)c1cncc(/C=C/c2c(C)cccc2C)c1
NO

Please let me know the test result on file for CCOC(=O)c1c(C)[nH]c(/C=C2\N=C(c3ccc[nH]3)C=C2OC)c1C .
YES

Which outcome was assigned to COC(=O)c1cc2c3c(cc(O)c2[nH]1)N(C(=O)C1Cc2cc(OC)c(OC)c(OC)c2N1)CC3CCl (stereo not given) in this test?
YES

* * *

Known TGI of a selection of compounds
# Tested on: RXF 393 renal
# Protocol notes: NCI tumour cell line growth inhibition, 48 h

Known TGI results, listed for orientation:
CC(NC(=O)C(N)CC(=O)O)NC(=O)N1CCOCC1 (stereo not given): > 100 µM
Cc1ccc(Nc2nc(=O)[nH]c(=O)[nH]2)cc1N=[N+]=[N-]: > 100 µM
Cc1ccc(/C=N/Nc2nncc3ccccc23)s1: > 100 µM
C=Cc1cc2c(cc1O)CC[C@@H]1[C@@H]2CC[C@]2(C)[C@@H](O)CC[C@@H]12: 8.92 µM
Fc1cc(-c2ncc(Cl)cc2Cl)c2cccccc1-2: > 100 µM

Quick one: TGI for COc1ccccc1N=N/C(=N/NC(=O)c1ccc(C)cc1)c1ccc(N(CCC#N)CCC#N)cc1OC ?
> 100 µM

Given the entry Nc1nc(N)c2nnn(C[C@H]3CC[C@@H](CO)C3)c2n1 , report its measured TGI.
> 100 µM

I have this compound here, COc1cc(/C=C/C(=O)N[C@@H]2C(=O)N3[C@@H]2SC(C)(C)[C@@H]3C(=O)O)cc(OC)c1OC , and I need its recorded TGI.
> 100 µM

Suppose we examine the compound CC1=C(/C=C/C2=CC(=C\C(=O)O)/CC(C3=C(C)CCCC3(C)C)C2)C(C)(C)CCC1 (stereo not given) ; what TGI value has been reported?
22.6 µM

Suppose we examine the compound CC1(C)C(=O)C2(OS(=O)(=O)C(F)(F)F)CCC1C2 (stereo not given) ; what TGI value has been reported?
> 100 µM

* * *

# TGI per record follows
# Tested on: OVCAR-3 ovarian
# Protocol notes: NCI tumour cell line growth inhibition, 48 h

Below, each entry is followed by its recorded TGI result.
OCCN=C1c2ccccc2C2C(c3ccccc31)C1c3ccccc3C(=NCCO)c3ccccc3C21 (stereo unspecified): 40.3 µM
CCOC(=O)/C(C#N)=C\C=C1/C=CNC2=NCCN21: > 100 µM
C=C1SC(=Nc2ccccc2Cl)N(C(=O)c2sc3ccccc3c2Cl)C1(C)C: > 56.3 µM
CCN(CC)CCSc1nc2c(c(=N)n1-c1ccccc1)c(=S)n(-c1ccccc1)c(=S)n2-c1ccccc1: 3.07 µM
CSc1nc(O)c(/C=C2\C=Nc3ccccc32)[nH]1: > 100 µM
COc1ccccc1N1CCN(C(=O)c2ccc(NS(=O)(=O)c3cccc4cccnc34)cc2)CC1: > 100 µM
CSc1nncc2[nH]cnc12: > 100 µM
CN(C)CCNC(=O)c1ccc(NCCCN(C)CCCNc2ccc(C(=O)NCCN(C)C)c3[nH]c4ccc([N+](=O)[O-])cc4c(=O)c23)c2c(=O)c3cc([N+](=O)[O-])ccc3[nH]c12: 1.94 µM

Item under review: NC12CC3CC4C1CC1CC2C(C3)C4(N)C1 . Reported TGI?
> 100 µM

Value lookup for TGI; key = NCCCn1c2c(c3cc4c(cc3c1=O)OCO4)C(=O)c1ccccc1-2
1.27 µM

* * *

# Test system: SF-268 CNS
# Protocol notes: NCI tumour cell line growth inhibition, 48 h
# TGI annotations

CNC(=O)c1cncc(/C=C/c2c(C)cccc2C)c1: > 25 µM
COc1cccc2c1C(=O)c1c(O)c3c(c(O)c1C2=O)C[C@@](O)(/C(C)=N/NC(=O)c1ccccc1)C[C@@H]3OC1CC(N)C(O)C(C)O1 (stereo not given in full): 3.35 µM
COc1ccc(Cl)cc1NC(=O)c1c(NC(=O)C(F)(F)C(F)(F)F)sc2c1CCCCC2: > 100 µM
COc1cc(C(=O)Nc2c3ccccc3nc3ccccc23)cc(OC)c1OC: > 82 µM

// next entry
Reported TGI, molecule CCn1c(-c2ccc(C)cc2)cs/c1=N\C(P(=O)(O)O)P(=O)(O)O : ____
> 100 µM

* * *

Property: TGI; scope: individual compounds
# Test system: NCI/ADR-RES ovarian
# Protocol notes: NCI tumour cell line growth inhibition, 48 h

Would you please look over these solved cases?
CC(C)CC1[C@@H](OCc2ccccc2)COS(=O)(=O)N1Cc1ccccc1 (stereo not given in full): > 100 µM
COC1OC(CBr)C(OC(c2ccccc2)(c2ccccc2)c2ccccc2)C(OC(c2ccccc2)(c2ccccc2)c2ccccc2)C1OC(c1ccccc1)(c1ccccc1)c1ccccc1 (stereo not given): > 100 µM
Cc1ccc2c(N/N=C\c3ccco3)cc(C)nc2n1: 26.1 µM
C/C=C1\C(=O)O[C@@H]2C1C[C@@H]1O[C@H]2[C@H](C)CCC/C(C)=C/CC[C@@]1(C)O (stereo not given in full): 13.4 µM
Cc1ccc(C(=O)CCC2C(=O)CC(C)(C)CC2=O)cc1: > 100 µM
O=C(Nc1ccc(Cl)cc1)c1cc2cc(F)ccc2cc1O: 8.05 µM
COC1(OC)C2(Cl)C(Cl)=C(Cl)C1(Cl)C1COCC12 (stereo not given): > 100 µM
Clc1ccc2c(NCCNc3ccnc4cc(Cl)ccc34)ccnc2c1: > 100 µM
O=S(=O)(O)c1ccc2c(N=Nc3ccccc3Cl)c(O)ccc2c1: > 100 µM

Pending compound:
Given the entry O=C(NC1CCN(Cc2ccccc2)CC1)c1cc(C(=O)NC2CCN(Cc3ccccc3)CC2)cc(C(=O)NC2CCN(Cc3ccccc3)CC2)c1 , report its measured TGI.
> 50 µM
